Reference source: ChEMBL document CHEMBL1795317

# Tested on: Mycobacterium tuberculosis
# assayText: Antimicrobial activity against Mycobacterium tuberculosis H37Rv ATCC 27294 after 28 days by agar dilution method
# Type: functional
# details: H37Rv ATCC 27294, 672 h
// boundary case: MIC equal to 6 µg/mL maps to F; strictly smaller maps to T

molecule	target	labelValue
O=C1NC(c2ccc(Br)cc2)c2c(ccc3oc4ccccc4c23)O1 (centres undefined)	Mycobacterium tuberculosis	T
CC(=O)NC(c1ccccc1)c1c(O)ccc2oc3ccccc3c12 (centres undefined)	Mycobacterium tuberculosis	F
COc1ccc(C(NC(C)=O)c2c(O)ccc3oc4ccccc4c23)cc1 (centres undefined)	Mycobacterium tuberculosis	F
CC(=O)NC(c1ccc(Br)cc1)c1c(O)ccc2oc3ccccc3c12 (centres undefined)	Mycobacterium tuberculosis	F
COc1cc(C(NC(=O)c2ccccc2)c2c(O)ccc3oc4ccccc4c23)cc(OC)c1OC (centres undefined)	Mycobacterium tuberculosis	F
CC[C@@H](CO)NCCN[C@@H](CC)CO	Mycobacterium tuberculosis	T
COc1ccc(C(NC(N)=O)c2c(O)ccc3oc4ccccc4c23)cc1 (centres undefined)	Mycobacterium tuberculosis	F
NC(=O)c1cnccn1 [PYRAZINAMIDE]	Mycobacterium tuberculosis	F

Enquiry: Given the entry COc1cc(C2NC(=O)Oc3ccc4oc5ccccc5c4c32)cc(OC)c1OC (centres undefined) , would its reported MIC be below 6 µg/mL?
Return: F

Enquiry: # strict comparison: is reported MIC < 6 µg/mL? input = O=C1NC(c2ccccc2)c2c(ccc3oc4ccccc4c23)O1 (centres undefined)
Return: T

Enquiry: Hi there! Is MIC for NC(=O)NC(c1ccc(Br)cc1)c1c(O)ccc2oc3ccccc3c12 (centres undefined) below 6 µg/mL, do you know?
Return: T

Enquiry: Determine whether this molecule shows MIC lower than 6 µg/mL (ties excluded): NC(=O)NC(c1ccc(Cl)cc1)c1c(O)ccc2oc3ccccc3c12 (centres undefined)
Return: T

Enquiry: A record lists `NNC(=O)c1ccncc1` . Is its MIC below 6 µg/mL?
Return: T

Enquiry: Would you kindly verify if MIC of COc1cc(C(NC(N)=O)c2c(O)ccc3oc4ccccc4c23)cc(OC)c1OC (centres undefined) is strictly less than 6 µg/mL?
Return: F

Enquiry: Check if MIC falls below 6 µg/mL for COc1cc(C(NC(C)=O)c2c(O)ccc3oc4ccccc4c23)cc(OC)c1OC (centres undefined) .
Return: F

Enquiry: State whether 6 µg/mL exceeds MIC recorded for CC(=O)NC(c1ccc(Cl)cc1)c1c(O)ccc2oc3ccccc3c12 (centres undefined) .
Return: F

Enquiry: Item COc1ccc(C2NC(=O)Oc3ccc4oc5ccccc5c4c32)cc1 (centres undefined) : MIC beneath 6 µg/mL, strictly?
Return: F

Enquiry: Lab log: compare recorded MIC with 6 µg/mL; is it strictly lower for O=C1NC(c2ccc(Cl)cc2)c2c(ccc3oc4ccccc4c23)O1 (centres undefined) ?
Return: T

Enquiry: Just wondering, is MIC of O=C(NC(c1ccc(Cl)cc1)c1c(O)ccc2oc3ccccc3c12)c1ccccc1 (centres undefined) below 6 µg/mL?
Return: F

###

Property: logP; scope: individual compounds
# assayText: Lipophilicity, log P of the compound
# Format: physicochemical
# details: octanol/water
Give a plain numeric answer without units written out.

compound	valueReported
COc1cc(C(NC(=O)c2ccccc2)c2c(O)ccc3oc4ccccc4c23)cc(OC)c1OC (stereo not given)	4.52
NC(=O)NC(c1ccc(Br)cc1)c1c(O)ccc2oc3ccccc3c12 (stereo not given)	3.5
NC(=O)NC(c1ccc(Cl)cc1)c1c(O)ccc2oc3ccccc3c12 (stereo not given)	3.23
O=C1NC(c2ccc(Br)cc2)c2c(ccc3oc4ccccc4c23)O1 (stereo not given)	4.43

As a next step, examine the compound that follows.
Enquiry: Specify reported logP for the compound shown: CC(=O)NC(c1ccccc1)c1c(O)ccc2oc3ccccc3c12 (stereo not given)
Return: 3

###

# Lookup of reported logP keyed by entry
# assayText: Lipophilicity, log P of the compound
# Assay type: physicochemical
# details: octanol/water

compound	logP
O=C1NC(c2ccc(Cl)cc2)c2c(ccc3oc4ccccc4c23)O1 (stereo unspecified)	4.16
CC(=O)NC(c1ccc(Cl)cc1)c1c(O)ccc2oc3ccccc3c12 (stereo unspecified)	3.56
COc1cc(C(NC(N)=O)c2c(O)ccc3oc4ccccc4c23)cc(OC)c1OC (stereo unspecified)	2.29
COc1ccc(C(NC(N)=O)c2c(O)ccc3oc4ccccc4c23)cc1 (stereo unspecified)	2.55

Enquiry: Quote logP reported for O=C(NC(c1ccc(Cl)cc1)c1c(O)ccc2oc3ccccc3c12)c1ccccc1 (stereo unspecified) please.
Return: 5.46

Enquiry: Item COc1cc(C(NC(C)=O)c2c(O)ccc3oc4ccccc4c23)cc(OC)c1OC (stereo unspecified) : provide logP
Return: 2.62
